- Assay Notes: NCI Yeast Anticancer Drug Screen. Data for the mec2-1 strain (AID 157)
- Experimental Context: S. cerevisiae mec2-1 strain, active compounds read high; at 50.0 µM unless noted
About 79,000 compounds went through this panel and 15% of them were active in at least one assay; those are over-represented in the sample as a whole.
Each entry below carries its reported growth inhibition.
Property Measured: growth inhibition (%)

>  <Compound>
COC(=O)c1c(C)ccc(C)c1Nc1cc(C)ccc1C

>  <Value>
-18

$$$$
>  <Compound>
O=C1NC(=O)[C@@]2(CC[C@@H](O)C2)c2ccncc21

>  <Value>
-42.6

$$$$
>  <Compound>
C/C(=N\NC(=O)c1ccncc1)c1cc(Cl)ccc1Cl

>  <Value>
5.4

$$$$
>  <Compound>
CC(=O)OC1c2ccccc2CCCCCCC12OCCO2 (centres undefined)

>  <Value>
-36.4

$$$$
>  <Compound>
CCCCOC(=O)c1ccccc1C(=O)Nc1ccccc1

>  <Value>
12.6

$$$$
>  <Compound>
CCC1([N+](C)(C)C)CSC1C (centres undefined)

>  <Value>
2.9

$$$$
>  <Compound>
NC(N)=NC(N)=Nc1cc(Cl)c(Cl)cc1Cl

>  <Value>
99.5

$$$$
>  <Compound>
CCCc1cc2c(cc1CC#N)OCO2

>  <Value>
19.4

$$$$
>  <Compound>
CC(=O)Nc1ccccc1C(C#N)Cc1ccccc1 (centres undefined)

>  <Value>
5.55

$$$$
>  <Compound>
COC(=O)C1(C)C=C(Nc2ccccc2)C(=O)N1c1ccccc1 (centres undefined)

>  <Value>
-19.8

$$$$
>  <Compound>
C=CCOC(=O)COc1ccc(Cl)cc1

>  <Value>
-8.1

$$$$
>  <Compound>
CC(=O)Oc1ccc(N2CC=C(c3ccccc3)CC2)cc1

>  <Value>
-13.5

$$$$
>  <Compound>
c1ccc2c(CC3NCCN3)cccc2c1

>  <Value>
-32.2

$$$$
>  <Compound>
CC(C)(C)C1CCC2c3c([nH]c4ccccc34)C3C(=O)N(c4cc(Br)cc(Br)c4)C(=O)C3C2C1 (centres undefined)

>  <Value>
9.15

$$$$
>  <Compound>
O=S(=O)(O)c1cc(S(=O)(=O)O)c2cc(O)ccc2c1

>  <Value>
3.35

$$$$
>  <Compound>
CCC(=O)COc1ccc(NC(NC(=O)C(C(F)(F)F)C(F)(F)F)(C(F)(F)F)C(F)(F)F)cc1

>  <Value>
-24.8

$$$$
>  <Compound>
NC(=O)Nc1ccccc1-c1ccccc1

>  <Value>
-11.2

$$$$
>  <Compound>
O=C(CCS(=O)(=O)CCC(=O)c1ccccc1)c1ccccc1

>  <Value>
11.8

$$$$
>  <Compound>
COC(=O)c1cc(Cl)ccc1OCC(=O)Nc1ccccc1

>  <Value>
-2.5

$$$$
>  <Compound>
CCCCCCCCCC(=O)Oc1cccc2c1CC(C[Se]c1ccccc1)C(=O)O2 (centres undefined)

>  <Value>
-0.3

$$$$
>  <Compound>
O=C(CO[N+](=O)[O-])OC/C=C/c1ccccc1

>  <Value>
5.35

$$$$
>  <Compound>
O=[N+]([O-])c1cccnc1S(=O)(=O)c1ccccc1

>  <Value>
5.7

$$$$
>  <Compound>
CCOC(=O)/C(F)=C/c1ccc(C#N)cc1

>  <Value>
-19.9

$$$$
>  <Compound>
COc1ccc(N2C(=O)c3c(c4[nH]c5ccc(OC)cc5c4c4ccc(C(C)(C)C)cc34)C2=O)cc1

>  <Value>
-7.95

$$$$
>  <Compound>
CN(C)CCC(=O)C(=Cc1ccc(Cl)c(Cl)c1)C(=O)CCN(C)C

>  <Value>
97.7

$$$$
>  <Compound>
Nc1c(Cl)ncnc1NCc1ccco1

>  <Value>
-4.2

$$$$
>  <Compound>
CCOC(=O)c1ccc(N(CCO)CCO)cc1

>  <Value>
12.4

$$$$
>  <Compound>
CC(=O)Nc1cc(NC(C)=O)c2ccc(=O)[nH]c2c1O

>  <Value>
-3.6

$$$$
>  <Compound>
CN(C)CCN1CC2Cc3ccccc3C1c1ccccc12 (centres undefined)

>  <Value>
-6.5

$$$$

----------
- Assay Notes: NCI Yeast Anticancer Drug Screen. Data for the cln2 rad14 strain (AID 165);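 further: 0% = growth equal to vehicle treated cultures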
- Experimental Context: S. cerevisiae cln2 rad14 strain, active compounds read high; at 50.0 µM unless noted
This is part of a sample that, as a whole, favours compounds with a hit. Of some 79,000 tested, about 15% had one in any assay.
growth inhibition overview

>  <Molecule>
Nc1ccc(OCc2ccccc2)cc1[N+](=O)[O-]

>  <growth inhibition / %>
14.5

$$$$
>  <Molecule>
NC(CSCCB(O)O)C(=O)O (stereo unspecified)

>  <growth inhibition / %>
-14.6

$$$$
>  <Molecule>
CC1(C)COC1(c1ccccc1)c1cccnc1 (stereo unspecified)

>  <growth inhibition / %>
-39.2

$$$$
>  <Molecule>
O=C(Nc1ccc(Cl)cc1)NC1OC(=O)C(Cl)=C1Cl (stereo unspecified)

>  <growth inhibition / %>
-17.9

$$$$
>  <Molecule>
COC(=O)C(Cc1ccc(N(C)C)cc1)(NC(=O)c1ccccc1)P(=O)(OC)OC (stereo unspecified)

>  <growth inhibition / %>
1.9

$$$$
>  <Molecule>
COC(=O)C(CCCCCCCC(C(=O)OC)c1nc2n(c1O)C(=N)N=N2)c1nc2n(c1O)C(=N)N=N2 (stereo unspecified)

>  <growth inhibition / %>
11.8

$$$$
>  <Molecule>
CC1=C(C(=O)OC(C)(C)C)C(c2ccc([N+](=O)[O-])cc2)C(C(=O)OC(C)(C)C)=C(C)N1

>  <growth inhibition / %>
12.2

$$$$
>  <Molecule>
CC(C)(C)NSc1nc2ccccc2s1

>  <growth inhibition / %>
4.2

$$$$
>  <Molecule>
CC(CCCCCOC(=O)Nc1ccccc1)OC(=O)Nc1ccccc1 (stereo unspecified)

>  <growth inhibition / %>
0.75

$$$$
>  <Molecule>
CCOC(=O)C12CCCC1(O)N(NC(=O)OC)C(C)=C2C(=O)OC (stereo unspecified)

>  <growth inhibition / %>
-63.4

$$$$
>  <Molecule>
COC(=O)NCC1OCC2OC(C)(C)OC12 (stereo unspecified)

>  <growth inhibition / %>
-62.5

$$$$
>  <Molecule>
CC(=O)c1cccc(OC(=O)Nc2ccccc2)c1

>  <growth inhibition / %>
4.3

$$$$
>  <Molecule>
CC(=O)N(C)c1ccc(NC(=O)C2CCCCC2C(=O)O)cc1 (stereo unspecified)

>  <growth inhibition / %>
3.65

$$$$
>  <Molecule>
CCOc1ccc(N=Nc2c(N)nc(N)[nH]c2=O)cc1

>  <growth inhibition / %>
19.9

$$$$
>  <Molecule>
COc1ccccc1N=C(N)N/N=C/c1c[nH]c2ccccc12

>  <growth inhibition / %>
17

$$$$
>  <Molecule>
C=CCc1cc(-c2cc(CC=C)c(O)c(CN(CC)CC)c2)cc(CN(CC)CC)c1O

>  <growth inhibition / %>
-18

$$$$
>  <Molecule>
CCN(CC)c1c(C)c(-c2ccccc2)n[n+]([O-])c1-c1ccccc1

>  <growth inhibition / %>
1.85

$$$$
>  <Molecule>
C=CCN1C(=O)CS/C1=N/NC(=O)C(O)(c1ccccc1)c1ccccc1

>  <growth inhibition / %>
-25.4

$$$$
>  <Molecule>
c1ccc(CN(Cn2cccn2)Cn2cccn2)nc1

>  <growth inhibition / %>
23.9

$$$$
>  <Molecule>
CC(CC(=O)c1cccc2ccccc12)C(=O)O (stereo unspecified)

>  <growth inhibition / %>
0.55

$$$$
>  <Molecule>
Cc1sc2ccccc2[n+]1CCC(=O)O

>  <growth inhibition / %>
-72.8

$$$$

----------
- Assay Notes: NCI Yeast Anticancer Drug Screen. Data for the rad50 strain (AID 155);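 further: 0% = growth of vehicle-only cultures of the same strain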
- Experimental Context: S. cerevisiae rad50 strain growth inhibition, active compounds read high; at 50.0 µM unless noted
- Description: Growth inhibition of yeast strains with defined genetic alterations is measured as a screen for potential anti-cancer activity. Selected strains with alterations in DNA damage repair or cell cycle control were exposed to compounds and growth inhibition was measured relative to vehicle treated controls. The strain used in this assay is rad50
About 79,000 compounds went through this panel and 15% of them were active in at least one assay; those are over-represented in the sample as a whole. Where a SMILES comes first, the peptide text is derived from it. Bridges are numbered along the chain shown (N, C = ends). [ ]: non-standard residue; d: D form. Aib = CC(C)(N)C(=O)O; βAla = NCCC(=O)O
Property Measured: growth inhibition (%)

>  <Molecule>
CCCC1OC(c2cc3c(cc2Br)OCO3)OCC1CC (stereo not drawn)

>  <Units Label>
%

>  <Value>
-4.5

$$$$
>  <Molecule>
CCC(=O)c1ccc(OC)cc1OC

>  <Units Label>
%

>  <Value>
-13.6

$$$$
>  <Molecule>
O=C(N(O)c1ccccc1Cl)C(O)(c1ccccc1)c1ccccc1

>  <Units Label>
%

>  <Value>
28.2

$$$$
>  <Molecule>
COc1cccc(C2c3cc4c(cc3OC(NNS(=O)(=O)c3ccc(C)cc3)C2C)OCO4)c1OC (stereo not drawn)

>  <Units Label>
%

>  <Value>
3.75

$$$$
>  <Molecule>
O=CNCC(=O)O

>  <Units Label>
%

>  <Value>
15.6

$$$$
>  <Molecule>
O=C(Nc1ccc(Cl)c(Cl)c1)Oc1cccc(NC(=S)Nc2ccccc2)c1

>  <Units Label>
%

>  <Value>
36.9

$$$$
>  <Molecule>
CC1(C)NC(=O)C(NC(=O)C(N)CC(=O)O)CCCCNC(=O)CCNC1=O (stereo not drawn) (H-DK[Aib][βAla]; lactam 2-C; configuration not given here)

>  <Units Label>
%

>  <Value>
-4.35

$$$$
>  <Molecule>
Clc1cccc(C2ON=C(c3ccccc3)N2C23CC4CC(CC(C4)C2)C3)c1Cl (stereo not drawn)

>  <Units Label>
%

>  <Value>
10.3

$$$$
>  <Molecule>
c1cc(-c2cnc(-c3ccc4c(c3)CCCO4)o2)ccn1

>  <Units Label>
%

>  <Value>
40.5

$$$$
>  <Molecule>
OCC1C(CO)C2CC1C1N=NN(c3ccccc3)C21 (stereo not drawn)

>  <Units Label>
%

>  <Value>
-4.8

$$$$
>  <Molecule>
N#CCNC(=O)Cc1ccccc1

>  <Units Label>
%

>  <Value>
10.2

$$$$
>  <Molecule>
COc1ccc(Br)cc1C1OC(=O)c2c(OC)c(OC)cc([N+](=O)[O-])c21 (stereo not drawn)

>  <Units Label>
%

>  <Value>
33.9

$$$$
>  <Molecule>
O=C(Cl)C(=O)c1c[nH]c2ccccc12

>  <Units Label>
%

>  <Value>
6.2

$$$$
>  <Molecule>
CC(Nc1ncc2c(n1)-c1ccccc1OC2)C(=O)O (stereo not drawn)

>  <Units Label>
%

>  <Value>
-2.45

$$$$
>  <Molecule>
CN1N=C(c2ccncc2)OC1c1cccc(C(F)(F)F)c1 (stereo not drawn)

>  <Units Label>
%

>  <Value>
-63.6

$$$$
>  <Molecule>
CCN(CC)CCN(CC)C(=S)Nc1ccccc1

>  <Units Label>
%

>  <Value>
1.75

$$$$
>  <Molecule>
CCOC(=O)NC(=O)c1cn(CCSCCOC(=O)NCCCCCCNC(=O)OCCSCCn2cc(C(=O)NC(=O)OCC)c(=O)n(C)c2=O)c(=O)n(C)c1=O

>  <Units Label>
%

>  <Value>
-26

$$$$
>  <Molecule>
O=C(O)C1C2CC=CCC21 (stereo not drawn)

>  <Units Label>
%

>  <Value>
13.4

$$$$
>  <Molecule>
Cc1nc(C(Cl)(Cl)Cl)[nH]c(=O)c1SCCO

>  <Units Label>
%

>  <Value>
12.8

$$$$
>  <Molecule>
O=C(C[n+]1cc(Br)cc2ccccc21)c1ccc(F)cc1

>  <Units Label>
%

>  <Value>
24.8

$$$$
>  <Molecule>
Nc1ccccc1S(=O)(=O)Nc1c(N)nc(SCC(=O)O)[nH]c1=O

>  <Units Label>
%

>  <Value>
-15.4

$$$$
>  <Molecule>
CCCCCCNC(=O)CCN(C(=O)O)S(=O)(=O)c1ccc(NC(=O)c2ccccc2)cc1

>  <Units Label>
%

>  <Value>
11.7

$$$$
>  <Molecule>
CC(C)N(C(=O)c1ccccc1O)C(C)C

>  <Units Label>
%

>  <Value>
2.95

$$$$
>  <Molecule>
O=C(OCc1ccccc1)ON1C(=O)C2C3C=CC(C3)C2C1=O (stereo not drawn)

>  <Units Label>
%

>  <Value>
-26.4

$$$$
>  <Molecule>
O=[N+]([O-])c1ccc(NN=C2CCCCC2)c([N+](=O)[O-])c1

>  <Units Label>
%

>  <Value>
9.1

$$$$
>  <Molecule>
c1ccc(NN(Cc2cnccn2)c2ccccc2)cc1

>  <Units Label>
%

>  <Value>
9.75

$$$$
>  <Molecule>
NCc1cc(Br)ccc1O

>  <Units Label>
%

>  <Value>
24.4

$$$$
>  <Molecule>
C=C(C)c1ccc(C(C)C)cc1

>  <Units Label>
%

>  <Value>
-38.5

$$$$
